- systemUnderTest: hERG ion channel (Homo sapiens)
- protocolSummary: Rb efflux through the hERG ion channel
- experimentalConditions: Rb efflux method
pIC50: −log10 of the molar value.
Kindly return Condition met if reported pIC50 is no lower than 4; return Condition not met if it is lower.

compound: COCCN1CCC(O)(c2cccc(C(F)(F)F)c2F)CC1 [drawing 27]
systemUnderTest: hERG ion channel (Homo sapiens)
assignedLabel: Condition not met
--
compound: CCCN1CCC(O)(c2ccc(F)c(C(F)(F)F)c2)CC1 [drawing 29]
systemUnderTest: hERG ion channel (Homo sapiens)
assignedLabel: Condition met
--
compound: COCCN1CCC(O)(c2ccc(Cl)c(C(F)(F)F)c2)CC1 [drawing 30]
systemUnderTest: hERG ion channel (Homo sapiens)
assignedLabel: Condition met

Say whether CCN1CCC(c2ccc(F)c(C(F)(F)F)c2)CC1 [reference compound] shows pIC50 of 4 or more. Condition met

====

Counter-ions that a name gives are not always drawn.
measuredMetric: melting point

compound: COCCN1CCC(O)(c2cccc(Cl)c2Cl)CC1 (as salt: hydrochloric acid salt)
observedMeasurement: 135 to 137 °C
--
compound: COCCN1CCC(O)(c2ccc(Cl)c(C(F)(F)F)c2)CC1 (as salt: hydrochloric acid salt) [Example 2]
observedMeasurement: 181 to 183 °C
--
compound: CCCCN1CCC(O)(c2cccc(C(F)(F)F)c2F)CC1 (as salt: hydrochloric acid salt) [Example 5]
observedMeasurement: 138 °C

Value of measured melting point for the entry CCCN1CCC(O)(c2ccc(F)c(C(F)(F)F)c2)CC1 (as salt: hydrochloric acid salt) [Example 8] : 179 to 181 °C

Value of measured melting point for the entry CCN1CCC(O)(c2cccc(C(F)(F)F)c2F)CC1 (as salt: hydrochloric acid salt) [Example 3] : 177 to 180 °C

Value of measured melting point for the entry CCCCN1CCC(O)(c2ccc(C)c(C(F)(F)F)c2)CC1 (as salt: hydrochloric acid salt) [Example 9] : 197 to 198 °C

Value of measured melting point for the entry CCCN1CCC(O)(c2cccc(C(F)(F)F)c2F)CC1 (as salt: hydrochloric acid salt) [Example 1] : 175 to 177 °C

Value of measured melting point for the entry CCCN1CCC(O)(c2cccc(Cl)c2Cl)CC1 (as salt: hydrochloric acid salt) : 181 to 183 °C

Value of measured melting point for the entry COCCN1CCC(O)(c2cccc(C(F)(F)F)c2F)CC1 (as salt: hydrochloric acid salt) [Example 4] : 159 to 160 °C

====

- protocolSummary: Oral bioavailability in rat
- Assay type: in vivo
- experimentalConditions: in vivo
measuredMetric: bioavailability

Value of measured bioavailability for the entry CCN1CCC(O)(c2cccc(C(F)(F)F)c2F)CC1 [Example 3] : ~80%

====

List of IC50 values.
- systemUnderTest: hERG ion channel (Homo sapiens, UniProt Q12809)
- Sequence (Q12809 whole entry): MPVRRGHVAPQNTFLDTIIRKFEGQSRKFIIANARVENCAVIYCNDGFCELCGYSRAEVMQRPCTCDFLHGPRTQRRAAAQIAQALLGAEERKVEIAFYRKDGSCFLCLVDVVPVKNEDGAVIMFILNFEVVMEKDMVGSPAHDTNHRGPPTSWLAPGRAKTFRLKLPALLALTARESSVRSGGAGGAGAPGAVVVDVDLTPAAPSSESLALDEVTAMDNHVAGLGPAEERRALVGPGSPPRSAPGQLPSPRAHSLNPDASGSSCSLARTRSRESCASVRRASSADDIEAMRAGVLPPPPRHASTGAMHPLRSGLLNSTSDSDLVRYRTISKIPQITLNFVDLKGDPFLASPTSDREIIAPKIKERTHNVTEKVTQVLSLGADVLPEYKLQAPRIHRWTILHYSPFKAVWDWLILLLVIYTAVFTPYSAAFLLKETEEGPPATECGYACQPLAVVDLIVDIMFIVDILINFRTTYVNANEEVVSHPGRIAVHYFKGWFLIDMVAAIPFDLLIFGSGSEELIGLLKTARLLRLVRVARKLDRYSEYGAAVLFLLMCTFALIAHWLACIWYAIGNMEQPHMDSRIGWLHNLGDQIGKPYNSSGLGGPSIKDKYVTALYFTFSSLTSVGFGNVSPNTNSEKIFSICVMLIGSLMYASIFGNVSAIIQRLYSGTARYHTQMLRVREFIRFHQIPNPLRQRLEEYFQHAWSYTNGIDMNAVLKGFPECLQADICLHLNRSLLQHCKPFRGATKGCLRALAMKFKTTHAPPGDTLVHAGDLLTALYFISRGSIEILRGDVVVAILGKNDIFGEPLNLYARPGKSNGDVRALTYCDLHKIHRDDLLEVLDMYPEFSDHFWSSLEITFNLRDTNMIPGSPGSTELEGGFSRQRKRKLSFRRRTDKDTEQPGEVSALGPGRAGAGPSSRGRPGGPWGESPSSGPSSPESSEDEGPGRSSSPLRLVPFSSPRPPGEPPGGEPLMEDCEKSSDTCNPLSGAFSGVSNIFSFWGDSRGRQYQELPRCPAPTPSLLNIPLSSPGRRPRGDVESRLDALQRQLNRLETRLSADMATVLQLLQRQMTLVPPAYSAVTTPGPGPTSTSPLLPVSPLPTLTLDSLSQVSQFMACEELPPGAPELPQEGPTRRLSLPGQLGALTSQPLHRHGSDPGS
- protocolSummary: Rb efflux through the hERG ion channel
- experimentalConditions: Rb efflux method
- Text: The substances according to the present invention display a low potency at inhibiting the hERG channel, as measured by IC50 in a Rb+ efflux assay (Development and evaluation of high throughput functional assay methods for hERG potassium channel. Tang W, Kang 1, Wu X, Rampe D, Wang L, Shen H, Li Z, Dunnington D, Garyantes T. J Biomol Screen. 2001 October; 6(5):325-31), indicating a low risk for QT interval prolongation and arrhythmia in man.
Answer with a number only, understood to be in µM.

Reference set, count: 4
compound: CCCCN1CCC(O)(c2cccc(C(F)(F)F)c2F)CC1 [drawing 28]
measuredMetric: IC50
observedMeasurement: 69
--
compound: CCCN1CCC(O)(c2cccc(C(F)(F)F)c2F)CC1 [drawing 25]
measuredMetric: IC50
observedMeasurement: 161
--
compound: CCN1CCC(O)(c2cccc(C(F)(F)F)c2F)CC1 [drawing 26]
measuredMetric: IC50
observedMeasurement: 424
--
compound: CCCN1CCC(c2cccc(C(F)(F)F)c2F)CC1 [reference compound]
measuredMetric: IC50
observedMeasurement: 7.97

Please examine the following record next.
Value of measured IC50 for the entry CCCN1CCC(c2cccc(Cl)c2Cl)CC1 [reference compound] : 5.66
